Reference for the values: patent US9073855B2

Target: GST-Bcl-2 (Homo sapiens, UniProt P10415)
Sequence (P10415 whole entry): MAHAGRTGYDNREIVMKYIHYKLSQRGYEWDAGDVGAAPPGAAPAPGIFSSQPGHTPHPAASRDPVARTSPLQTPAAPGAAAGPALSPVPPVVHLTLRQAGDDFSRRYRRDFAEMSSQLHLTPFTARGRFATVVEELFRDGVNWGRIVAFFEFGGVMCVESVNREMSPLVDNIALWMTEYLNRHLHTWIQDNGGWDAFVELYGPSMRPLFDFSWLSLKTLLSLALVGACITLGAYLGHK
Assay: TR-FRET binding assay, GST-Bcl-2 with F-Bak peptide probe
Conditions: TR-FRET; Bcl-XL Ki divided by Bcl-2 Ki
Here, each record is paired with measured Binding selectivity ratio (Bcl-XL Ki/Bcl-2 Ki) data.

Use the examples below as a reference point.
molecule	result
CC1(C)CCC(CN2CCN(c3ccc(C(=O)NS(=O)(=O)c4ccc(OCC5CCC(C)(O)CC5)c([N+](=O)[O-])c4)c(Oc4cccc5[nH]ncc45)c3)CC2)=C(c2ccc(Cl)cc2)C1 (stereo not drawn) [Example 532]	>981.2
CC1(C)CCC(CN2CCN(c3ccc(C(=O)NS(=O)(=O)c4cnc(OC[C@@H]5CN(C6CC6)CCO5)c(Cl)c4)c(Oc4cccc5[nH]cnc45)c3)CC2)=C(c2ccc(Cl)cc2)C1	2356.5

Quick one: Binding selectivity ratio (Bcl-XL Ki/Bcl-2 Ki) of CC1(C)CCC(CN2CCN(c3ccc(C(=O)NS(=O)(=O)c4cnc(OCC5CCC(C)(O)CC5)c(Cl)c4)c(Oc4cccc5[nH]ncc45)c3)CC2)=C(c2ccc(Cl)cc2)C1 (stereo not drawn) [Example 493] ? >4188.3
